The values you see were collected from ChEMBL document CHEMBL1156283.

experiment: Half life in mouse microsomes in phase 1/2 using NADPH and UDPGA as a cofacto; assay type: ADME, Microsome
observation-type: half-life (min)

structure-smiles: CN1CCN(C(=O)c2ccc(-c3ccnc4c3c(/C=C3\Oc5cccc(O)c5C3=O)cn4C)cc2)CC1
observation-type: half-life
unit: min
observed-result: 24

structure-smiles: Cn1cc(/C=C2\Oc3cc(O)cc(O)c3C2=O)c2c(-c3ccccc3)ccnc21
observation-type: half-life
unit: min
observed-result: 2

structure-smiles: Cn1cc(/C=C2\Oc3cccc(O)c3C2=O)c2c(N3CCC(C(=O)N4CCN(CCO)CC4)CC3)ccnc21
observation-type: half-life
unit: min
observed-result: 14

structure-smiles: Cn1cc(/C=C2\Oc3cccc(O)c3C2=O)c2c(-c3ccc(C(=O)N4CCOCC4)cc3)ccnc21
observation-type: half-life
unit: min
observed-result: 10

structure-smiles: CN(C)C(=O)C1CCN(c2ccnc3c2c(/C=C2\Oc4cccc(O)c4C2=O)cn3C)CC1
observation-type: half-life
unit: min
observed-result: 20

(I) Cn1cc(/C=C2\Oc3cccc(O)c3C2=O)c2c(N3CCC(C(=O)N4CC5CCC(C4)O5)CC3)ccnc21
(II) Cn1cc(/C=C2\Oc3cccc(O)c3C2=O)c2c(-c3ccc(C(=O)N4CC5CCC(C4)O5)cc3)ccnc21
**Query** Of I and II , which carries the smaller reported half-life figure? Let me know the label of the one you choose.
**Result** II
